# TEST SYSTEM: Muscarine M4 (GPCR-A-MA-ACH M4) (Homo sapiens)
# Construct: expressed in transfected cells; host or cells: CHO cells
# Sequence (P08173 1-479): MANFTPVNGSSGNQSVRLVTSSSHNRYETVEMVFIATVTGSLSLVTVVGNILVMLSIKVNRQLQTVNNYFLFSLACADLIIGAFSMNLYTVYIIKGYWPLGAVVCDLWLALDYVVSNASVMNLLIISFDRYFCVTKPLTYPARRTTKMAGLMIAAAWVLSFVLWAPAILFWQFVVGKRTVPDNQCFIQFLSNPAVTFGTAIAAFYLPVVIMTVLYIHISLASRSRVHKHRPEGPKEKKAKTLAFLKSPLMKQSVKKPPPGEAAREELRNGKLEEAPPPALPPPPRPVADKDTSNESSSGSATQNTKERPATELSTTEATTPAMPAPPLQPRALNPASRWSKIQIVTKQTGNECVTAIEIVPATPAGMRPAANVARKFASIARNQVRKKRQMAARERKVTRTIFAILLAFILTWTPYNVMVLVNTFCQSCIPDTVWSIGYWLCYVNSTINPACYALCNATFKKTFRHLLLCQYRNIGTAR
# METHOD: Muscarine M4 receptor binding, 3H-4DAMP
# MEASUREMENT CONDITIONS: human M4, CHO cells, ligand 0.2 nM, 60 min/22° C., read-out: RB Musc. M4 3H-DAMP pKi (converted)
# Procedure: Compounds were dissolved in DMSO (10 mM) and diluted in assay buffer to test concentration. […] Following incubation of compound with the receptor preparation (from ‘Tissue’) and the Ligand at the time and temperature indicated, the receptor preparations were rapidly filtered under vacuum through glass fibre filters; the filters were washed extensively with an ice-cold buffer using a harvester. Bound radioactivity was measured by scintillation counting using a liquid scintillation cocktail. […]
TEST READOUT: Ki (nM)
Answers are plain numbers, in nM.

Example results:
1) CCCCCCSc1c[nH]nc1C1CN2CCC1CC2 (stereo not drawn) [Compound 49F] | 50.1
2) Ic1c[nH]nc1[C@@H]1CN2CCC[C@H]1C2 | 100

Lab note: next molecule to report on.
Look up and report measured Ki for this entry: CCCCCSc1c[nH]nc1C1CN2CCC1CC2 (stereo not drawn) [Compound 49B] 25.1

====

# TEST SYSTEM: Muscarine M4 (GPCR-A-MA-ACH M4) (Homo sapiens, UniProt P08173)
# Construct: expressed in transfected cells; host or cells: CHO cells
# METHOD: Muscarine M4 receptor binding, 3H-Oxotremorine
# MEASUREMENT CONDITIONS: human M4, CHO cells; receptor binding, ligand 6 nM, 30 min/25° C.; read-out: RB Musc. M4 3H-Oxotremorine pKi (converted)
Please go through the items and note down their Ki.
Numbers only, in nM.

1. CCCCCCCC#Cc1c[nH]nc1C1=CCCN(C)C1 [Compound 45C] | 501
2. CCCCC=Cc1conc1C1=CCCN(C)C1 [Compound 68A] | 631
3. CCOCCSc1c[nH]nc1C1=CCCN(C)C1 [Compound 22O] | 398
4. CCCCCc1c[nH]nc1C1=CCCN(C)C1 | 398
5. CCCCOc1c[nH]nc1C1=CCCN(C)C1 [Compound 33C] | 1580

List the reported Ki of each compound below.
1. C=CCCOc1c[nH]nc1C1=CCCN(C)C1 [Compound 33D]
2. CN1CCC=C(c2n[nH]cc2SCc2ccco2)C1 [Compound 22M]
3. C=CCCCSc1c[nH]nc1C1=CCCN(C)C1 [Compound 22L]
4. CCCCCCCOc1c[nH]nc1C1=CCCN(C)C1 [Compound 33E]
5. CN1CCC=C(c2n[nH]cc2SCc2ccccc2)C1 [Compound 22N]
6. CCCCNc1c[nH]nc1C1=CCCN(C)C1

[1580, 251, 63.1, 158, 251, 3980]

These data points were gathered from patent US8735388B2.
